Target: T1, TNFR1 (Homo sapiens, UniProt P19438)
T1 chain: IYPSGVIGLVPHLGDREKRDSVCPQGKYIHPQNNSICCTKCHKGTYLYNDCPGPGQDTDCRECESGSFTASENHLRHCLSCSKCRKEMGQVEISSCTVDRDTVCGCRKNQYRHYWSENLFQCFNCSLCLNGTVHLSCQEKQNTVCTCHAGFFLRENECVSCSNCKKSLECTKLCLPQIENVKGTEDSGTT
Assay: yeast display SC50
Quantity Name: apparent Kd (screen) (pM)
State the answer as a number, implicitly in pM.

Guide cases for apparent Kd (screen), answers given:
[[record]]
binder = "E60Y (designed binder) SMEEEVEKAAKEYEKKKKEAIEKHLEKLKAKDKEAAERFLKELEEAAKEYAKDEAKTMSYEEAKRRAKKYKEKVLLSELSEEEQKEIKEAEEKLVRTILKYVEEAAK"
observed_value = 718

[[record]]
binder = "K73G (designed binder) SMEEEVEKAAKEYEKKKKEAIEKHLEKLKAKDKEAAERFLKELEEAAKEYAKDEAKTMSEEEAKRRAKKYKEGVLLSELSEEEQKEIKEAEEKLVRTILKYVEEAAK"
observed_value = 22200

[[record]]
binder = "K16A (designed binder) SMEEEVEKAAKEYEKAKKEAIEKHLEKLKAKDKEAAERFLKELEEAAKEYAKDEAKTMSEEEAKRRAKKYKEKVLLSELSEEEQKEIKEAEEKLVRTILKYVEEAAK"
observed_value = 2730

[[record]]
binder = "T97M (designed binder) SMEEEVEKAAKEYEKKKKEAIEKHLEKLKAKDKEAAERFLKELEEAAKEYAKDEAKTMSEEEAKRRAKKYKEKVLLSELSEEEQKEIKEAEEKLVRMILKYVEEAAK"
observed_value = 539

[[record]]
binder = "K68I (designed binder) SMEEEVEKAAKEYEKKKKEAIEKHLEKLKAKDKEAAERFLKELEEAAKEYAKDEAKTMSEEEAKRRAIKYKEKVLLSELSEEEQKEIKEAEEKLVRTILKYVEEAAK"
observed_value = 869

[[record]]
binder = "V102D (designed binder) SMEEEVEKAAKEYEKKKKEAIEKHLEKLKAKDKEAAERFLKELEEAAKEYAKDEAKTMSEEEAKRRAKKYKEKVLLSELSEEEQKEIKEAEEKLVRTILKYDEEAAK"
observed_value = 539

[[record]]
binder = "E72L (designed binder) SMEEEVEKAAKEYEKKKKEAIEKHLEKLKAKDKEAAERFLKELEEAAKEYAKDEAKTMSEEEAKRRAKKYKLKVLLSELSEEEQKEIKEAEEKLVRTILKYVEEAAK"
observed_value = 446

[[record]]
binder = "L40N (designed binder) SMEEEVEKAAKEYEKKKKEAIEKHLEKLKAKDKEAAERFNKELEEAAKEYAKDEAKTMSEEEAKRRAKKYKEKVLLSELSEEEQKEIKEAEEKLVRTILKYVEEAAK"
observed_value = 539

[[record]]
binder = "K15G (designed binder) SMEEEVEKAAKEYEGKKKEAIEKHLEKLKAKDKEAAERFLKELEEAAKEYAKDEAKTMSEEEAKRRAKKYKEKVLLSELSEEEQKEIKEAEEKLVRTILKYVEEAAK"
observed_value = 653

[[record]]
binder = "Y13T (designed binder) SMEEEVEKAAKETEKKKKEAIEKHLEKLKAKDKEAAERFLKELEEAAKEYAKDEAKTMSEEEAKRRAKKYKEKVLLSELSEEEQKEIKEAEEKLVRTILKYVEEAAK"
observed_value = 1690


[ask] Give its apparent Kd (screen) value. Item: Q84S (designed binder) SMEEEVEKAAKEYEKKKKEAIEKHLEKLKAKDKEAAERFLKELEEAAKEYAKDEAKTMSEEEAKRRAKKYKEKVLLSELSEEESKEIKEAEEKLVRTILKYVEEAAK
[reply] 11400

[ask] Give its apparent Kd (screen) value. Item: E104W (designed binder) SMEEEVEKAAKEYEKKKKEAIEKHLEKLKAKDKEAAERFLKELEEAAKEYAKDEAKTMSEEEAKRRAKKYKEKVLLSELSEEEQKEIKEAEEKLVRTILKYVEWAAK
[reply] 869

[ask] Give its apparent Kd (screen) value. Item: K85L (designed binder) SMEEEVEKAAKEYEKKKKEAIEKHLEKLKAKDKEAAERFLKELEEAAKEYAKDEAKTMSEEEAKRRAKKYKEKVLLSELSEEEQLEIKEAEEKLVRTILKYVEEAAK
[reply] 790

[ask] Give its apparent Kd (screen) value. Item: M58T (designed binder) SMEEEVEKAAKEYEKKKKEAIEKHLEKLKAKDKEAAERFLKELEEAAKEYAKDEAKTTSEEEAKRRAKKYKEKVLLSELSEEEQKEIKEAEEKLVRTILKYVEEAAK
[reply] 4830

[ask] Give its apparent Kd (screen) value. Item: I87P (designed binder) SMEEEVEKAAKEYEKKKKEAIEKHLEKLKAKDKEAAERFLKELEEAAKEYAKDEAKTMSEEEAKRRAKKYKEKVLLSELSEEEQKEPKEAEEKLVRTILKYVEEAAK
[reply] 22200

[ask] Give its apparent Kd (screen) value. Item: K93P (designed binder) SMEEEVEKAAKEYEKKKKEAIEKHLEKLKAKDKEAAERFLKELEEAAKEYAKDEAKTMSEEEAKRRAKKYKEKVLLSELSEEEQKEIKEAEEPLVRTILKYVEEAAK
[reply] 8560
